Provenance of the data: ChEMBL document CHEMBL3739314

protocol_details: Retention time of compound by RP-HPLC analysis
Assay type: physicochemical
measured_quantity: Retention_time (min)
Quick reminder: number only, in min, skip the unit.

Consider the following illustrative entries.
structure_smiles_string: N=C(N)NCCC[C@H](NC(=O)c1cc2ccccc2s1)C(=O)N[C@@H](CCCCN)C(=O)N[C@@H](C(N)=O)c1ccc(OCc2ccc(C(F)(F)F)cc2)cc1
Retention_time, min: 3.47

structure_smiles_string: N=C(N)NCCC[C@H](NC(=O)c1cc2ccsc2s1)C(=O)N[C@@H](CCCCN)C(=O)N[C@@H](C(N)=O)c1ccc(OCc2ccc(C(F)(F)F)cc2)cc1
Retention_time, min: 3.39

structure_smiles_string: N=C(N)NCCC[C@H](NC(=O)c1cc2sccc2s1)C(=O)N[C@@H](CCCCN)C(=O)N[C@@H](C(N)=O)c1ccc(OCc2c(Cl)cccc2Cl)cc1
Retention_time, min: 3.28

structure_smiles_string: CC(C)(C)c1ccc(COc2ccc([C@@H](NC(=O)[C@H](CCCCN)NC(=O)[C@H](CCCNC(=N)N)NC(=O)c3ccc(Cl)s3)C(N)=O)cc2)cc1
Retention_time, min: 3.34

structure_smiles_string: N=C(N)NCCC[C@H](NC(=O)c1ccccc1)C(=O)N[C@@H](CCCCN)C(=O)N[C@@H](C(N)=O)c1ccc(OCc2ccccc2)cc1
Retention_time, min: 2.83

From here, focus on the item given below.
Query string: Bench note: what Retention_time did N=C(N)NCCC[C@H](NC(=O)c1cccs1)C(=O)N[C@@H](CCCCN)C(=O)N[C@@H](C(N)=O)c1ccc(OCc2ccc(Cl)c(Cl)c2)cc1 show?
Result string: 3.22
